Cited source for all entries: PubChem BioAssay (NCI)

# Tested on: UACC-257 melanoma
# assay-comment: NCI tumour cell line growth inhibition, 48 h; in the data active means GI50 below about 0.43 µM; inactive means the rest
Your response should consist of one outcome taken from 1 (yes) for active, 0 (no) for inactive

Solved cases below.
compound	label-value
c1cc2ccc3cc2cc1CNCCN1CCNCc2ccc4ccc(cc4c2)CNCCN(CCNC3)CCNCc2ccc3ccc(cc3c2)CNCC1	0 (no)
NC(=O)[C@@H](CCC(F)(F)F)N(Cc1ccc(-c2ncon2)cc1F)S(=O)(=O)c1ccc(Cl)cc1	0 (no)
C=CCCCC(=O)CCC(=O)OCC1O[C@@H](O[C@@H]2C(O)[C@@H](OC(C)=O)C(C)O[C@H]2O[C@H](CC=C)CCCCC)C(O)[C@@H](OC(=O)/C(C)=C/C)[C@@H]1OC(=O)/C=C/c1ccccc1 (some centres not stated)	1 (yes)
COc1ccc2[nH]c(C(=O)N3CCN(C(=O)OCc4ccc5c(Br)cc(Br)c(O)c5n4)CC3)cc2c1	0 (no)
CO/N=C(\COc1ccc2c(=O)cc(-c3ccccc3)oc2c1)c1ccc(F)cc1	0 (no)
O=c1cc(N2CCOCC2)oc2c(-c3ccc4c(c3)OCCO4)csc12	0 (no)

**Query** Recorded test call requested for CC12CC[C@@H]3c4cc5c(cc4CC[C@H]3[C@@H]1CCC2O)oc1cc(F)ccc15 (some centres not stated)
**Result** 0 (no)

**Query** Recorded test call requested for COc1cc(C(=O)/C=C/c2cc(-c3cc(OC)c(OC)c(OC)c3)n[nH]2)cc(OC)c1OC
**Result** 0 (no)

**Query** Recorded test call requested for Cc1ccc2nc3ccccc3c(NCc3ccccc3)c2c1
**Result** 0 (no)

**Query** Recorded test call requested for Cn1cc(-c2ccc(-c3cn(C)c4ncccc34)[nH]2)c2cccnc21
**Result** 0 (no)

**Query** Recorded test call requested for O=C(CCl)Nc1ccc2c(Nc3cc(O)ccc3Cl)ncnc2c1
**Result** 0 (no)

**Query** Recorded test call requested for COc1ccc(NC(=O)c2sc3nc(C)c(C(=O)/C=C/c4ccccc4)cc3c2N)cc1
**Result** 0 (no)

**Query** Recorded test call requested for O=C(N/N=C\c1cc(Cl)ccc1O)c1ccncc1
**Result** 0 (no)

**Query** Recorded test call requested for COC(=O)c1ccc([C@H]2c3[nH]c4ccccc4c3C[C@H](C(=O)OC)N2C(=O)CCl)cc1
**Result** 0 (no)

**Query** Recorded test call requested for O=C1C(C(Nc2ccccc2)c2ccccc2)=C([O-])c2ccccc21.O=C1C(C(Nc2ccccc2)c2ccccc2)=C([O-])c2ccccc21.[Co+2] (configuration not stated)
**Result** 0 (no)

**Query** Recorded test call requested for Cc1cc(C)c(S(=O)(=O)N2CCN(c3cc4c(cc3F)c(=O)c(C(=O)O)cn4C3CC3)CC2)c(C)c1
**Result** 0 (no)

**Query** Recorded test call requested for COC(=O)N1c2ccc3c(nc(Cc4ccccc4)n3[C@H]3CCC[C@H](C(=O)O)C3)c2CC[C@@H]1C
**Result** 0 (no)

* * *

# System: K-562 leukemia
# assay-comment: NCI tumour cell line growth inhibition, 48 h; in the data active = GI50 below about 0.43 µM; inactive = the rest
Your response should consist of one outcome taken from active, inactive

Solved cases below.
compound	label-value
NCCOc1ncccc1/C=C1\C2C=CC=CC2C2C=CC(F)=CC12 (stereo not drawn)	inactive
N#Cc1ccccc1C#C/C=C\C#Cc1cccs1	inactive
CC1=C2[C@H]3OC(=O)[C@@H](C)[C@@H]3CC[C@@]2(C)C=CC1=O	inactive
O=C1N=C(c2c(-c3[nH]c(=O)c4ccc(Br)cc4c3O)c(O)c3ccccc3c2O)C(=O)c2cc(Br)ccc21	inactive
CCN(CC)CCCNc1ccc2ncn3c4ccc(O)cc4c(=O)c1c23	inactive

**Query** Recorded test call requested for CC(=O)O[C@H]1C(=O)[C@@]2(C)[C@H]([C@H](OC(=O)c3ccccc3)[C@]3(O)C[C@H](OC(=O)[C@H](O)[C@@H](NC(=O)c4ccoc4)c4ccccc4)C(C)=C1C3(C)C)[C@]1(OC(C)=O)CO[C@@H]1C[C@@H]2O
**Result** active

**Query** Recorded test call requested for COc1ccc(OC)c(Nc2nc3ccccc3c3c2-c2ccc(OC)cc2C3=O)c1
**Result** inactive

**Query** Recorded test call requested for COc1ccc2[nH]c(C(=O)N3CCN(C(=O)OCc4ccc5c(Br)cc(Br)c(O)c5n4)CC3)cc2c1
**Result** active
